Source of measurements: patent US7244730B2

target: thrombin receptor (Homo sapiens, UniProt P25116); construct: centrifuged at 40,000 g for 60 minutes to yield platelet membrane; from tissue; host or cells: platelet membrane prepared from donor blood (platelet rich plasma); test: Receptor binding assay ([3H] high affinity TRAP, platelet membrane)
pIC50: −log10 of the molar value. Counter-ions that a name gives are not always drawn.
QUANTITY_KIND: pIC50

MOLECULE	TARGET_ENTITY	QUANTITY_KIND	TEST_VALUE
CCNC(=O)Oc1c(OCC)cc(C(=O)CN2Cc3cc(OCC)c(OCC)c(F)c3C2=N)cc1C(C)(C)C [Example 29, hydrobromide]	thrombin receptor (Homo sapiens, UniProt P25116)	pIC50	7.12

---

test system: platelet rich plasma (PRP), thrombin-induced platelet aggregation; assay: Inhibitory effects on platelet aggregation using platelet rich plasma; type: cell-based; conditions: Homo sapiens, 0.1 h, PRP of healthy adult, aggregation initiated with thrombin (0.5–1.5 units/ml), area under aggregation curve, 6 minutes, read-out: Thr IC50
Counter-ions that a name gives are not always drawn.
IC50 under 40 nM gets satisfied, anything at or over 40 nM gets not satisfied.

MOLECULE	LABEL_CLASS
CCOc1cc2c(c(F)c1OCC)C(=N)N(CC(=O)c1cc(N(C)C)c(OC)c(C(C)(C)C)c1)C2 [Example 6, hydrobromide]	not satisfied
CCOc1cc2c(c(F)c1OCC)C(=N)N(CC(=O)c1cc(N3CCN(CC#N)CC3)c(OC)c(C(C)(C)C)c1)C2 [Example 11, hydrobromide]	not satisfied
CCOc1cc2c(cc1C(=O)NC)C(=N)N(CC(=O)c1cc(OCC)c(O)c(C(C)(C)C)c1)C2 [Example 109, hydrobromide]	satisfied
CCOc1cc2c(c(F)c1OCC)C(=N)N(CC(=O)c1cc(N3CCN(C(C)=O)CC3)c(OC)c(C(C)(C)C)c1)C2 [Example 13, hydrobromide]	not satisfied

---

Target: thrombin receptor (Homo sapiens, UniProt P25116)
Construct: centrifuged at 40,000 g for 60 minutes to yield platelet membrane; from tissue; host or cells: platelet membrane prepared from donor blood (platelet rich plasma)
Sequence (P25116 22-425): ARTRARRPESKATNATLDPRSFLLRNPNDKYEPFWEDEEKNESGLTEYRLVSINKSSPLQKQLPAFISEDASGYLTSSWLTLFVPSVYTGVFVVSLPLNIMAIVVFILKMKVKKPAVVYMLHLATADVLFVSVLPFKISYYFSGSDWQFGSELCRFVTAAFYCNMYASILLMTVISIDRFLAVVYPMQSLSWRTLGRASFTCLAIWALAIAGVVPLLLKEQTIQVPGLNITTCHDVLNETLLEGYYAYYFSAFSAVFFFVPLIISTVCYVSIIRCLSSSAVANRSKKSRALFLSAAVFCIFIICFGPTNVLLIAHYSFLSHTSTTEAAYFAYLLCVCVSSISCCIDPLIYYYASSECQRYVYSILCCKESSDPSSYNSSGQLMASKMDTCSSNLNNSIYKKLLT
Assay: Receptor binding assay ([3H] high affinity TRAP, platelet membrane)
Settings: platelet membrane of healthy adult; 25 nM [3H] high affinity TRAP; 37° C., 1 hour; read-out: RBA IC50
pIC50: −log10 of the molar value. Structures can show the parent of a compound that is named as a salt.
Reported values of pIC50 for individual entries

MOLECULE	pIC50
CCOc1cc2c(cc1C(=O)NC)C(=N)N(CC(=O)c1cc(OCC)c(O)c(C(C)(C)C)c1)C2 [Example 109, hydrobromide]	7.52
CCOc1cc2c(c(F)c1OCC)C(=N)N(CC(=O)c1cc(NCC#N)c(OC)c(C(C)(C)C)c1)C2 [Example 10, hydrobromide]	7.59
CCOc1cc2c(c(F)c1OCC)C(=N)N(CC(=O)c1cc(N3CCNCC3)c(OC)c(C(C)(C)C)c1)C2 [Example 112, dihydrochloride]	7.52
CCOc1cc2c(c(F)c1OCC)C(=N)N(CC(=O)c1cc(N3CCN(C(C)=O)CC3)c(OC)c(C(C)(C)C)c1)C2 [Example 13, hydrobromide]	7.34
CCOc1cc2c(c(F)c1OCC)C(=N)N(CC(=O)c1cc(NC(C)C)c(OC)c(C(C)(C)C)c1)C2 [Example 26, hydrobromide]	7.77
CCOc1cc2c(c(F)c1OCC)C(=N)N(CC(=O)c1cc(N3CCC(=O)CC3)c(OC)c(C(C)(C)C)c1)C2 [Example 94, hydrobromide]	7.89

---

test system: platelet rich plasma (PRP), thrombin-induced platelet aggregation; assay: Inhibitory effects on platelet aggregation using platelet rich plasma; type: cell-based; conditions: Homo sapiens, 0.1 h, PRP of healthy adult, aggregation initiated with thrombin (0.5–1.5 units/ml), area under aggregation curve, 6 minutes, read-out: Thr IC50
pIC50: −log10 of the molar value. Where a name gives a salt, the structure may show the parent alone.

COMPOUND	pIC50
CCOc1cc2c(c(F)c1OCC)C(=N)N(CC(=O)c1cc(N3CCC(O)CC3)c(OC)c(C(C)(C)C)c1)C2 [Example 8, hydrobromide]	7.08
CCOc1cc2c(c(F)c1OCC)C(=N)N(CC(=O)c1cc(N3C[C@H](OCC)[C@@H](O)C3)c(OC)c(C(C)(C)C)c1)C2 [Example 17, trifluoroacetate]	7.10
CCOc1cc2c(c(F)c1OCC)C(=N)N(CC(=O)c1cc(N3CCNCC3)c(OC)c(C(C)(C)C)c1)C2 [Example 112, dihydrochloride]	7.55
CCOc1cc2c(c(F)c1OCC)C(=N)N(CC(=O)c1cc(N3CCC(=O)CC3)c(OC)c(C(C)(C)C)c1)C2 [Example 94, hydrobromide]	7.54
CCOc1cc2c(c(F)c1OCC)C(=N)N(CC(=O)c1cc(N3CCN(C(=O)COC)CC3)c(OC)c(C(C)(C)C)c1)C2 [Example 16, hydrobromide]	7.24
CCOc1cc2c(c(F)c1OCC)C(=N)N(CC(=O)c1cc(N3CCN(CC(=O)O)CC3)c(OC)c(C(C)(C)C)c1)C2 [Example 127, dihydrochloride]	7.68
CCOc1cc2c(c(F)c1OCC)C(=N)N(CC(=O)c1cc(NC(C)C)c(OC)c(C(C)(C)C)c1)C2 [Example 26, hydrobromide]	7.10
CCOc1cc2c(c(F)c1OCC)C(=N)N(CC(=O)c1cc(NCC#N)c(OC)c(C(C)(C)C)c1)C2 [Example 10, hydrobromide]	7.62
CCOc1cc2c(c(F)c1OCC)C(=N)N(CC(=O)c1cc3c(c(C(C)(C)C)c1)OCCN3CC#N)C2 [Example 5, hydrobromide]	6.54
CCOc1cc(C(=O)CN2Cc3cc(OCC)c(OCC)c(F)c3C2=N)cc(C(C)(C)C)c1OC [Example 28, hydrobromide]	7.36

---

molecular target: thrombin receptor (Homo sapiens); construct: centrifuged at 40,000 g for 60 minutes to yield platelet membrane; from tissue; host or cells: platelet membrane prepared from donor blood (platelet rich plasma); assay: Receptor binding assay ([3H] high affinity TRAP, platelet membrane); conditions: platelet membrane of healthy adult; 25 nM [3H] high affinity TRAP; 37° C., 1 hour; read-out: RBA IC50
Structures can show the parent of a compound that is named as a salt.
Reported values of IC50 for individual entries
QUANTITY_KIND: IC50 (µM)

MOLECULE	TEST_VALUE
CCOc1cc2c(c(F)c1OCC)C(=N)N(CC(=O)c1cc(N3CCN(CC#N)CC3)c(OC)c(C(C)(C)C)c1)C2 [Example 11, hydrobromide]	0.045
CCOc1cc2c(c(F)c1OCC)C(=N)N(CC(=O)c1cc(N3C[C@H](OCC)[C@@H](O)C3)c(OC)c(C(C)(C)C)c1)C2 [Example 17, trifluoroacetate]	0.032
CCOc1cc2c(c(F)c1OCC)C(=N)N(CC(=O)c1cc(N3CCOCC3)c(OC)c(C(C)(C)C)c1)C2	0.026
CCOc1cc2c(c(F)c1OCC)C(=N)N(CC(=O)c1cc(N3CCN(C(=O)COC)CC3)c(OC)c(C(C)(C)C)c1)C2 [Example 16, hydrobromide]	0.053
CCOc1cc2c(c(F)c1OCC)C(=N)N(CC(=O)c1cc3c(c(C(C)(C)C)c1)OCCN3CC#N)C2 [Example 5, hydrobromide]	0.017
CCOc1cc2c(c(F)c1OCC)C(=N)N(CC(=O)c1cc(N3CCN(CC(=O)O)CC3)c(OC)c(C(C)(C)C)c1)C2 [Example 127, dihydrochloride]	0.017
CCOc1cc(C(=O)CN2Cc3cc(OCC)c(OCC)c(F)c3C2=N)cc(C(C)(C)C)c1OC [Example 28, hydrobromide]	0.026
CCOc1cc2c(c(F)c1OCC)C(=N)N(CC(=O)c1cc(N(C)C)c(OC)c(C(C)(C)C)c1)C2 [Example 6, hydrobromide]	0.024
CCOc1cc2c(c(F)c1OCC)C(=N)N(CC(=O)c1cc(N3CCC(O)CC3)c(OC)c(C(C)(C)C)c1)C2 [Example 8, hydrobromide]	0.029
CCOc1cc2c(c(F)c1OCC)C(=N)N(CC(=O)c1cc(N3C[C@@H](O)[C@H](OC)C3)c(OC)c(C(C)(C)C)c1)C2 [Example 12, trifluoroacetate]	0.045
